All figures here come from paper PMC3961628.

Assay type: in vivo, healthy human subjects
Condition set: human, plasma, oral, 20 mg, C max, Treatment A: apixaban 20 mg alone, n = 18; geometric mean (% CV)
Value type: Cmax (µg/mL)
Give bare numbers, in µg/mL.

[Q] May I ask what Cmax has been recorded for COc1ccc(-n2nc(C(N)=O)c3c2C(=O)N(c2ccc(N4CCCCC4=O)cc2)CC3)cc1 [apixaban] ?
[A] 0.38
